- Test system: CopR1 (Pseudomonas putida KT2440), ORF:c26c307e
- Sequence: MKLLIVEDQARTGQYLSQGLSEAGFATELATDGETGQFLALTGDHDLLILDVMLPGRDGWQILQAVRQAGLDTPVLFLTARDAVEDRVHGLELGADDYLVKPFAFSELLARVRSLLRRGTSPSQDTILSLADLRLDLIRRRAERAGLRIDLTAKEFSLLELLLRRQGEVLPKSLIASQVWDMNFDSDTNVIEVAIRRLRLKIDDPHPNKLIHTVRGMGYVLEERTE
- method summary: EMSA
- condition details: EMSA: 20 nM probe, 10 mM Tris-HCl pH 7.5, 50 mM KCl, 10 mM MgCl2, 5% glycerol, 20 min at 4 C, 5% native PAGE in TGE pH 8.3; footprinting: same binding system …
property measured: binding

[
  {
    "biosequence": "TGTAAAACGACGGCCAGTGGGTGGCGGTAATGAACAGGTGTTTCATGATGACTCCGGGAATACACAGCAGGATGAGGCCACATTAGCCGGGGGCGACTGGCAGCTACCTGACAGGCACATTACAACTTTGTCAGCTTGGGCGAGCGGGCACATCGTCACGTATCATTTCAGCCATCCCATTGCCCCTGTGCTAGCGGTAAGGCGGCGCCATAGGCTACGCACAATCTTTCAGAATATGGACAGCGCATGAAACTGCTGATCGTCGAAGACCAGGC (double strand) [copR1 (copRS1) promoter probe]",
    "property measured": "binding",
    "value": "binds"
  },
  {
    "biosequence": "CTTTGACAAACGTACGGCGGGAGGGGTTGCGCAACATGGCGAGGCCTCATGCGGAATAGCCACGATGTTCGCTGCCGCCTGCTGTCAGGTAGCTGAGGTGCACATTACAGTGTTGTCAGCTTGCTGCTTCGTCGATGCGCAGGTCGCGCATCAGCAGGCCGTAGTCGAGGGCAACCTGTTCCGGGATCGGCAGATACACCACATGGCCATCGCCCGGTGCGACCTCGATGGCGTGCTGCTACTGGCCGTCGTTTTACA (double strand) [copA1 (copAB1) promoter probe]",
    "property measured": "binding",
    "value": "binds"
  },
  {
    "biosequence": "TGTAAAACGACGGCCAGTAGCCAGAGCCATAAACACGGGCAGCATGAGAACTGCTGATCCGAGCTTACAGAAATGTAATCACTCGGGAATCTTTTATGTGGCAGTTTCAAATCGCTTTCTCCCACTGTGACTTGCGCTTTCGAGCAAGTCCCTAAGACTTGTGGGATCCCCAAGGAAGCCGGGCCTGCGATCGAGCGGCCCGGATATCAGCGAATTATCTGACTGACTGGACACTACGGCATGCAAAGCAAAACCACGAGACGATCTTTCGTCAAAGGCCTGGC (double strand) [copA2 (copAB2) promoter probe]",
    "property measured": "binding",
    "value": "binds"
  }
]
